Assay details: Half life in human liver microsomes at 10 uM by LC-MS/MS analysis
Format: ADME, Microsome
Measurement setup: liver microsomes
Measurement type: half-life at 10 µM
Provide a numeric answer, followed by its unit.

Lookup: Can you share its half-life at 10 µM? I mean this compound: Clc1ccc2c(NCCCNCc3ccccc3)ccnc2c1
Found: 1 h

Lookup: Try the compound Clc1ccc2c(NCCNCc3ccccc3)ccnc2c1
Found: 1 h

Lookup: // query: Clc1ccc2c(NCCCNCc3cccnc3)ccnc2c1
Found: 1 h

---

# selectivity ratio annotations
Assay details: Selectivity index, ratio of IC50 for human HepG2 cells to IC50 for Plasmodium falciparum TM91C235
Type: toxicity, cell-based
Measurement setup: read-out: Ratio IC50
Enter the number alone.

Reference set (2 entries):
Lookup: Entry Clc1ccc2c(NCCNCc3ccncc3)ccnc2c1 has what selectivity ratio?
Found: 752

Lookup: Also, CC(C)(C)c1ccc(CNCCCNc2ccnc3cc(Cl)ccc23)cc1 please.
Found: 68

Pending molecule:
Lookup: selectivity ratio lookup needed for COc1ccncc1CNCCCNc1ccnc2cc(Cl)ccc12 , thanks.
Found: 93
